The reported numbers originate from patent US11512085B2.

Experiment: Pharmacokinetic study, single intravenous and oral dose, beagle dogs
Type: in vivo
Details: male, blood, Dog, IV, 2 mg/kg

| Compound | Cmax, ng/mL |
| --- | --- |
| C=CC(=O)NN1CCCC(n2nc(-c3ccc(Oc4ccccc4)cc3)c3c(N)ncnc32)C1 (stereo not shown) | 1230 |

====

System: SU-DHL-4
Test: In vitro tumor cell proliferation (CellTiter-Glo), SU-DHL-4
Format: cell-based
Settings: Homo sapiens, SU-DHL-4, 72 h; read-out: Growth IC50

| Molecule | System name | IC50 / nM |
| --- | --- | --- |
| C=CC(=O)NN1CCCC(n2nc(-c3ccc(Oc4ccccc4)cc3)c3c(N)ncnc32)C1 (stereo not shown) [Embodiment 6] | SU-DHL-4 | 75 |
